Target: T1, human APJ receptor (human, UniProt P35414 1-380)
T1 sequence (looked up): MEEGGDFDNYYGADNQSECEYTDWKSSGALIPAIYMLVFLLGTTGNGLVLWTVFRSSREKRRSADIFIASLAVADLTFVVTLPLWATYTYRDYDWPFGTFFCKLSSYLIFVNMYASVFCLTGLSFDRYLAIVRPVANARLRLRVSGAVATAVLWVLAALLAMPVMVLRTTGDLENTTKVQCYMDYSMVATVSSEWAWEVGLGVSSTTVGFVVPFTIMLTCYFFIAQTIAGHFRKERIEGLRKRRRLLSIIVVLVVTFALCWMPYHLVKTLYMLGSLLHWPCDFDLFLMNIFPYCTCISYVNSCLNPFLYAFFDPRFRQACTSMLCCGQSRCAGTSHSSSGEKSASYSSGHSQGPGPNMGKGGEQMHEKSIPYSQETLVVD
Experiment: cell-based or functional assay
Starred links: 1 amine or outer side, 2 acyl side, 3 side chain; linkers in the order of their positions; H or OH if unused. Non-standard residues stand in square brackets, D forms with d. Primed or numbered codes have the meaning given here. *: point of attachment. AC4Abu = α-carboxy-4-aminobutyric acid, O=C(C(CCN[*:1])C(=O)[*:3])[*:2]; Oic = O=C(O)[C@@H]1C[C@@H]2CCCC[C@@H]2N1; Phe(4-Cl) = N[C@@H](Cc1ccc(Cl)cc1)C(=O)O; γGlu = O=C(O)[C@H](CCC(=O)[*:2])N[*:1]; NMeR = CN[C@@H](CCCNC(=N)N)C(=O)O; Tridecanoyl = CCCCCCCCCCCCC(=O)*; hArg = N=C(N)NCCCC[C@H](N)C(=O)O; Cha = N[C@@H](CC1CCCCC1)C(=O)O; Aic = NC1(C(=O)O)Cc2ccccc2C1; αMeP = C[C@@]1(C(=O)O)CCCN1; β3hP = O=C(O)C[C@@H]1CCCN1; Nle = CCCC[C@H](N)C(=O)O; Pip′ = not defined here; AEEA = NCCOCCOCC(=O)O; Aib = CC(C)(N)C(=O)O; BLeu = β-leucine; βAla = NCCC(=O)O
Classify on EC50 Human APJ Receptor (GTPγS assay) using class 0: < 0.2 nM; class 1: ≥ 0.2 nM and < 3 nM; class 2: ≥ 3 nM

Field: example entries. Status: answers known.
BINDER	CLASS_ASSIGNMENT
Tridecanoyl-[γGlu][AEEA][AEEA]QR[Pip′][NMeR][Cha]SHKG[Oic][Nle]P[Phe(4-Cl)]-OH [Apelin polypeptide SEQ ID NO: 440]	class 2
Tridecanoyl-[AC4Abu][AEEA][AEEA]QRP[NMeR]LS[βAla]KGP[Nle]P[Phe(4-Cl)]-OH (SMILES CCCCCCCCCCCCC(=O)NCCC(C(=O)O)C(=O)NCCOCCOCC(=O)NCCOCCOCC(=O)N[C@@H](CCC(N)=O)C(=O)N[C@@H](CCCNC(=N)N)C(=O)N1CCC[C@H]1C(=O)N(C)[C@@H](CCCNC(=N)N)C(=O)N[C@@H](CC(C)C)C(=O)N[C@@H](CO)C(=O)NCCC(=O)N[C@@H](CCCCN)C(=O)NCC(=O)N1CCC[C@H]1C(=O)N[C@@H](CCCC)C(=O)N1CCC[C@H]1C(=O)N[C@@H](Cc1ccc(Cl)cc1)C(=O)O) [Apelin polypeptide SEQ ID NO: 423]	class 1
Tridecanoyl-[γGlu][AEEA][AEEA]QRPQLSHKGP[Nle]P[Phe(4-Cl)]-OH (SMILES CCCCCCCCCCCCC(=O)N[C@@H](CCC(=O)NCCOCCOCC(=O)NCCOCCOCC(=O)N[C@@H](CCC(N)=O)C(=O)N[C@@H](CCCNC(=N)N)C(=O)N1CCC[C@H]1C(=O)N[C@@H](CCC(N)=O)C(=O)N[C@@H](CC(C)C)C(=O)N[C@@H](CO)C(=O)N[C@@H](Cc1c[nH]cn1)C(=O)N[C@@H](CCCCN)C(=O)NCC(=O)N1CCC[C@H]1C(=O)N[C@@H](CCCC)C(=O)N1CCC[C@H]1C(=O)N[C@@H](Cc1ccc(Cl)cc1)C(=O)O)C(=O)O) [Apelin polypeptide SEQ ID NO: 465]	class 0
XXXQRPRLSHKGPXPF ({TDA}[AC4Abu][Aeea][Aeea]QRP[NMeArg][BhLeu]SHKGP[Nle]P[4-Cl-F]{COOH}) [Apelin polypeptide SEQ ID NO: 422]	class 0
Tridecanoyl-[γGlu][AEEA][AEEA]QEP[NMeR]LSHKGP[Nle]P[Phe(4-Cl)]-OH (SMILES CCCCCCCCCCCCC(=O)N[C@@H](CCC(=O)NCCOCCOCC(=O)NCCOCCOCC(=O)N[C@@H](CCC(N)=O)C(=O)N[C@@H](CCC(=O)O)C(=O)N1CCC[C@H]1C(=O)N(C)[C@@H](CCCNC(=N)N)C(=O)N[C@@H](CC(C)C)C(=O)N[C@@H](CO)C(=O)N[C@@H](Cc1c[nH]cn1)C(=O)N[C@@H](CCCCN)C(=O)NCC(=O)N1CCC[C@H]1C(=O)N[C@@H](CCCC)C(=O)N1CCC[C@H]1C(=O)N[C@@H](Cc1ccc(Cl)cc1)C(=O)O)C(=O)O) [Apelin polypeptide SEQ ID NO: 475]	class 2
XXXQRPRLSHKGPXPF ({TDA}[AC4Abu][Aeea][Aeea]qR[aMePro][hArg][BLeu]SHKG[aMePro][Nle][aMePro][4-Cl-F]{COOH}) [Apelin polypeptide SEQ ID NO: 504]	class 1

Task: Which class holds Tridecanoyl-[γGlu][AEEA][AEEA][dQ]R[β3hP][hArg][BLeu]SHKG[Oic][Nle][Aib][Phe(4-Cl)]-OH [Apelin polypeptide SEQ ID NO: 522] ?
Output: class 1

Task: Which category does the recorded EC50 Human APJ Receptor (GTPγS assay) put XXXQRPRLSHKGPXXF ({TDA}[AC4Abu][Aeea][Aeea]QRP[NMeArg]LSHKGP[Nle][Pip][4-Cl-F]{COOH}) [Apelin polypeptide SEQ ID NO: 429] in?
Output: class 0

Task: Quick check: band for Tridecanoyl-[γGlu][AEEA][AEEA][dQ][hArg]P[dR][Cha]SHKG[Oic][Nle]P[D‑4IF]-OH [Apelin polypeptide SEQ ID NO: 369]
Output: class 2

Task: Band of Tridecanoyl-[γGlu][AEEA][AEEA][dQ][hArg]P[dR][Cha]SHKG[Oic][Nle][Aic]-OH (SMILES CCCCCCCCCCCCC(=O)N[C@@H](CCC(=O)NCCOCCOCC(=O)NCCOCCOCC(=O)N[C@H](CCC(N)=O)C(=O)N[C@@H](CCCCNC(=N)N)C(=O)N1CCC[C@H]1C(=O)N[C@H](CCCNC(=N)N)C(=O)N[C@@H](CC1CCCCC1)C(=O)N[C@@H](CO)C(=O)N[C@@H](Cc1c[nH]cn1)C(=O)N[C@@H](CCCCN)C(=O)NCC(=O)N1[C@H](C(=O)N[C@@H](CCCC)C(=O)NC2(C(=O)O)Cc3ccccc3C2)C[C@@H]2CCCC[C@@H]21)C(=O)O) [Apelin polypeptide SEQ ID NO: 595] ?
Output: class 2

Task: For XXXQRPRLSHKGXXPF ({TDA}[AC4Abu][Aeea][Aeea]QRP[NMeArg][aMeLeu]SHKG[Pip][Nle][aMePro][4-Cl-F]{COOH}) [Apelin polypeptide SEQ ID NO: 605] , which EC50 Human APJ Receptor (GTPγS assay) bin applies?
Output: class 0

Task: Please let me know in which category the item Tridecanoyl-[γGlu][AEEA][AEEA][dQ]R[αMeP][hArg][BLeu]SHKG[Oic][Nle][β3hP][Phe(4-Cl)]-OH [Apelin polypeptide SEQ ID NO: 556] belongs.
Output: class 2

Task: For XXXQRPRLSHKGPXPF ({TDA}[AC4Abu][Aeea][Aeea]QRP[NMeArg]LSHKGP[Nle][aMePro][4-Cl-F]{COOH}) [Apelin polypeptide SEQ ID NO: 401] , which EC50 Human APJ Receptor (GTPγS assay) bin applies?
Output: class 0
